target: PARP-1 (Homo sapiens, UniProt P09874)
Construct: purchased BPS Bioscience 80580
Sequence (P09874 whole entry): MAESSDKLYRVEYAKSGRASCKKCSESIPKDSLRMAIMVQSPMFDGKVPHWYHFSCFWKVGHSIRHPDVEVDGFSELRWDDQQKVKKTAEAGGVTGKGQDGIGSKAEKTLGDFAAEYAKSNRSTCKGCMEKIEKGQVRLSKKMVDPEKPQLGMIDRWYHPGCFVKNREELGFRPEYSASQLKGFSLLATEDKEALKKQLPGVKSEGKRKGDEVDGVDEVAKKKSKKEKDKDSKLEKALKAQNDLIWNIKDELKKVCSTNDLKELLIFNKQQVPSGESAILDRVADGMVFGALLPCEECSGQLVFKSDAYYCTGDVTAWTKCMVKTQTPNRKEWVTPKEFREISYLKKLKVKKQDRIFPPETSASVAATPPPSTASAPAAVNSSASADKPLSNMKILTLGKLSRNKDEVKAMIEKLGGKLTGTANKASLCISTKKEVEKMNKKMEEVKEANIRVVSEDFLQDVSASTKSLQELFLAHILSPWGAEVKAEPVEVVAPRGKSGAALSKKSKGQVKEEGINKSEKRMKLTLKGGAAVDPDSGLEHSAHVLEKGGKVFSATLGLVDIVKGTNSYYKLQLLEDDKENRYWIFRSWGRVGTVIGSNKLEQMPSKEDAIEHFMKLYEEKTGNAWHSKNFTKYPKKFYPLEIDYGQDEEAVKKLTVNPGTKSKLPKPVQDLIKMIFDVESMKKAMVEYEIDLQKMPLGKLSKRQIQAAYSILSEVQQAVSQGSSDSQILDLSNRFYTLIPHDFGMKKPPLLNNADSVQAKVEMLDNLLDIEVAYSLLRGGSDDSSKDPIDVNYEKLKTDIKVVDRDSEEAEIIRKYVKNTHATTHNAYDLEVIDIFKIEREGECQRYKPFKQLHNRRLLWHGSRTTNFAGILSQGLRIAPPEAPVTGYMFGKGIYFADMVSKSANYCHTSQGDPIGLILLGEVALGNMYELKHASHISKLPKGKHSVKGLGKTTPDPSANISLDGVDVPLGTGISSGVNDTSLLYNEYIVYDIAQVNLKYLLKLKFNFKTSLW
test: In vitro PARP-1 inhibitory assay (colorimetric 96-well kit, BPS Bioscience)
Type: biochemical
testParameters: colorimetric assay, mean of at least two independent experiments in triplicate; read-out: IC50 against PARP-1 (converted)
measure: IC50 (nM)

Worked cases, answers included:
compound | target | IC50, nM
NC1=CC(c2ccc([N+](=O)[O-])cc2)=NC2Oc3[nH]c(=O)[nH]c(=O)c3C(c3cccs3)C12 (stereo not drawn) [Compound S8] | PARP-1 (Homo sapiens, UniProt P09874) | 15.8
CCO/C=N/C1=C(C#N)C(c2cccs2)c2c([nH]c(=O)[nH]c2=O)O1 (stereo not drawn) [Compound S9] | PARP-1 (Homo sapiens, UniProt P09874) | 48.5
Cc1nc(O)c2c(n1)Oc1[nH]c(=O)[nH]c(=O)c1C2c1cccs1 (stereo not drawn) [Compound S10] | PARP-1 (Homo sapiens, UniProt P09874) | 16.2
O=c1[nH]c2c(c(=O)[nH]1)C(c1cccs1)c1[nH]c(=S)[nH]c(=S)c1O2 (stereo not drawn) [Compound S5] | PARP-1 (Homo sapiens, UniProt P09874) | 11.1
N#CC1=C(N)Oc2[nH]c(=O)[nH]c(=O)c2C1c1cccs1 (stereo not drawn) [Compound S1] | PARP-1 (Homo sapiens, UniProt P09874) | 49.1

(1) Nc1nc(S)nc2c1Oc1[nH]c(=O)[nH]c(=O)c1C2c1cccs1 (stereo not drawn) [Compound S2]
(2) Nc1ncnc2c1Oc1[nH]c(=O)[nH]c(=O)c1C2c1cccs1 (stereo not drawn) [Compound S4]
When their IC50 values are compared, which is larger, 1 or 2 ? Please identify the chosen entry by its label.
2
(2: 14.9 nM, 1: 4.06 nM)

(1) O=c1[nH]c2c(c(=O)[nH]1)C(c1cccs1)c1[nH]c(=S)n(-c3ccccc3)c(=O)c1O2 (stereo not drawn) [Compound S7]
(2) CONC1=C(C#N)Oc2[nH]c(=O)[nH]c(=O)c2C1c1cccs1 (stereo not drawn) [Compound S6]
When their IC50 values are compared, which is larger, 1 or 2 ? Please identify the chosen entry by its label.
2

====

target: PARP-1 (Homo sapiens)
Construct: purchased BPS Bioscience 80580
test: In vitro PARP-1 inhibitory assay (colorimetric 96-well kit, BPS Bioscience)
Format: biochemical
Protocol: Briefly, the histone mixture was diluted 1 : 5 with 1× PBS, 50 μl of histone solution was added to each well and incubated at 4 °C overnight. The plate was washed three times using 200 μl PBST buffer (1× PBS containing 0.05% Tween-20) per well. Liquid was removed from the wells by tapping the strip wells on clean paper towels. […] The amount of PARP-1 required for the assay was then calculated. […] Then reaction was quenched with […] per well of 2 M sulfuric acid, and absorbance at 450 nm was determined. […]
measure: pIC50
Please note pIC50 is a logarithmic value: minus log10 of concentration in mol/L. Answer with that number alone.

Give the measured pIC50 of Nc1nn(-c2cc([N+](=O)[O-])ccc2[N+](=O)[O-])c2c1Oc1[nH]c(=O)[nH]c(=O)c1C2c1cccs1 (stereo not shown) .
7.15
